# ASSAY_REMARKS: Ocular tissue and plasma pharmacokinetics, 50 mg/kg BID oral, Dutch Belted rabbits (Example 4/5)
# Type: in vivo
# EXPERIMENTAL_PARAMETERS: male, Dutch Belted, rabbit, iris-ciliary body, po, 50 mg/kg, DB rabbit, 50 mg/kg BID oral, Day 15, 6 h; read-out: Mean Iris-Ciliary Body concentration
READOUT: concentration at 6 h (ng/g)
Just the number please, in ng/g, no unit attached.

Reported concentration at 6 h of CC(=O)c1nn(CC(=O)N2C[C@H](F)C[C@H]2C(=O)Nc2cccc(Br)n2)c2ccc(-c3cnc(C)nc3)cc12 : 8820

====

# ASSAY_REMARKS: Ocular tissue and plasma pharmacokinetics, 15 mg/kg single and BID oral, Dutch Belted rabbits (Example 3/5)
# Assay type: in vivo
# EXPERIMENTAL_PARAMETERS: Dutch Belted, rabbit, choroid-RPE, oral, 15 mg/kg, DB rabbits, Day 1, 15 mg/kg single dose, 24 hr; read-out: Mean Choroid-RPE Concentration
READOUT: concentration at 24 h (ng/g)
Just the number please, in ng/g, no unit attached.

Reported concentration at 24 h of CC(=O)c1nn(CC(=O)N2C[C@H](F)C[C@H]2C(=O)Nc2cccc(Br)n2)c2ccc(-c3cnc(C)nc3)cc12 [Compound 1] : 311

====

# ASSAY_REMARKS: Ocular tissue and plasma pharmacokinetics, 15 mg/kg single and BID oral, Dutch Belted rabbits (Example 3/5)
# Type: in vivo
# EXPERIMENTAL_PARAMETERS: Dutch Belted, rabbit, vitreous humor, po, 15 mg/kg, Vitreous Humor, DB rabbit, 15 mg/kg BID, Day 15
READOUT: MRT last (h)
Just the number please, in h, no unit attached.

Reported MRT last of CC(=O)c1nn(CC(=O)N2C[C@H](F)C[C@H]2C(=O)Nc2cccc(Br)n2)c2ccc(-c3cnc(C)nc3)cc12 : 2.23

====

# ASSAY_REMARKS: Ocular tissue distribution and pharmacokinetics, 15 mg/kg BID oral, nonpigmented New Zealand White rabbits (Example 7)
# Assay type: in vivo
# EXPERIMENTAL_PARAMETERS: New Zealand White, rabbit, retina, oral; NZW rabbits, Day 15, 15 mg/kg BID, 1 hr; read-out: Mean Retina Concentration
READOUT: concentration at 1 h (ng/g)
Just the number please, in ng/g, no unit attached.

Reported concentration at 1 h of CC(=O)c1nn(CC(=O)N2C[C@H](F)C[C@H]2C(=O)Nc2cccc(Br)n2)c2ccc(-c3cnc(C)nc3)cc12 : 248

====

# ASSAY_REMARKS: Ocular tissue and plasma pharmacokinetics, 15 mg/kg oral, New Zealand White rabbits (Example 3/5)
# Assay type: in vivo
# EXPERIMENTAL_PARAMETERS: New Zealand White, po; Iris-Ciliary Body, NZW rabbit, 15 mg/kg single dose, Day 1
READOUT: MRT last
Answers without a unit are incomplete; give the number and then its unit.

Reported MRT last of CC(=O)c1nn(CC(=O)N2C[C@H](F)C[C@H]2C(=O)Nc2cccc(Br)n2)c2ccc(-c3cnc(C)nc3)cc12 : 1 h

====

# ASSAY_REMARKS: Ocular tissue distribution and pharmacokinetics, 7.5 and 15 mg/kg oral, pigmented Dutch Belted rabbits (Example 7)
# Format: in vivo
# EXPERIMENTAL_PARAMETERS: Dutch Belted, rabbit, retina, oral, […], DB rabbits, Day 15, […] BID, 1 hr; read-out: Mean Retina Concentration
READOUT: concentration at 1 h (ng/g)
Just the number please, in ng/g, no unit attached.

Reported concentration at 1 h of CC(=O)c1nn(CC(=O)N2C[C@H](F)C[C@H]2C(=O)Nc2cccc(Br)n2)c2ccc(-c3cnc(C)nc3)cc12 : 306

====

# ASSAY_REMARKS: Ocular tissue distribution and pharmacokinetics, 7.5 and 15 mg/kg oral, pigmented Dutch Belted rabbits (Example 7)
# Type: in vivo
# EXPERIMENTAL_PARAMETERS: Dutch Belted, rabbit, choroid-retinal pigment epithelium (choroid-RPE), oral, 15 mg/kg, DB rabbits, Day 15, 15 mg/kg BID, 240 hr; read-out: Mean Choroid-RPE Concentration
# Method: For Group 1, two animals/time point were sacrificed via an overdose of sodium pentobarbital at approximately 1, 6, 12, 24, 96, 168, and 240 hours postdose. Blood (approximately 2 mL) was collected from all animals at sacrifice into tubes containing K2EDTA via exsanguination (cardiac puncture). […]
READOUT: concentration at 240 h (ng/g)
Just the number please, in ng/g, no unit attached.

Reported concentration at 240 h of CC(=O)c1nn(CC(=O)N2C[C@H](F)C[C@H]2C(=O)Nc2cccc(Br)n2)c2ccc(-c3cnc(C)nc3)cc12 : 119

====

# ASSAY_REMARKS: Ocular tissue and plasma pharmacokinetics, 15 mg/kg single and BID oral, Dutch Belted rabbits (Example 3/5)
# Format: in vivo
# EXPERIMENTAL_PARAMETERS: Dutch Belted, rabbit, choroid-RPE, oral, 15 mg/kg, DB rabbits, Day 1, 15 mg/kg single dose, 168 hr; read-out: Mean Choroid-RPE Concentration
READOUT: concentration at 168 h (ng/g)
Just the number please, in ng/g, no unit attached.

Reported concentration at 168 h of CC(=O)c1nn(CC(=O)N2C[C@H](F)C[C@H]2C(=O)Nc2cccc(Br)n2)c2ccc(-c3cnc(C)nc3)cc12 : 56.3

====

# ASSAY_REMARKS: Ocular tissue and plasma pharmacokinetics, 50 mg/kg BID oral, Dutch Belted rabbits (Example 4/5)
# Assay type: in vivo
# EXPERIMENTAL_PARAMETERS: male, Dutch Belted, rabbit, retina, oral, 50 mg/kg, DB rabbits, Day 15, 50 mg/kg BID, 6 hr; read-out: Mean Retina Concentration
READOUT: concentration at 6 h (ng/g)
Just the number please, in ng/g, no unit attached.

Reported concentration at 6 h of CC(=O)c1nn(CC(=O)N2C[C@H](F)C[C@H]2C(=O)Nc2cccc(Br)n2)c2ccc(-c3cnc(C)nc3)cc12 : 725

====

# ASSAY_REMARKS: Ocular tissue distribution and pharmacokinetics, 7.5 and 15 mg/kg oral, pigmented Dutch Belted rabbits (Example 7)
# Assay type: in vivo
# EXPERIMENTAL_PARAMETERS: Dutch Belted, rabbit, plasma, oral, 15 mg/kg, DB rabbits, Day 15, 15 mg/kg BID, 1 hr; read-out: Mean Plasma Concentration
READOUT: concentration at 1 h (µg/mL)
Just the number please, in µg/mL, no unit attached.

Reported concentration at 1 h of CC(=O)c1nn(CC(=O)N2C[C@H](F)C[C@H]2C(=O)Nc2cccc(Br)n2)c2ccc(-c3cnc(C)nc3)cc12 : 0.91

====

# ASSAY_REMARKS: Ocular tissue and plasma pharmacokinetics, 50 mg/kg BID oral, Dutch Belted rabbits (Example 4/5)
# Type: in vivo
# EXPERIMENTAL_PARAMETERS: male, Dutch Belted, rabbit, retina, po, 50 mg/kg, DB rabbit, 50 mg/kg BID oral, Day 15, 96 h; read-out: Mean retina concentration
READOUT: concentration at 96 h (ng/g)
Just the number please, in ng/g, no unit attached.

Reported concentration at 96 h of CC(=O)c1nn(CC(=O)N2C[C@H](F)C[C@H]2C(=O)Nc2cccc(Br)n2)c2ccc(-c3cnc(C)nc3)cc12 : 32.3

====

# ASSAY_REMARKS: Phase 1 single ascending dose plasma pharmacokinetics in healthy volunteers
# Assay type: in vivo, human
# EXPERIMENTAL_PARAMETERS: human, po, 600 mg, Group 2, 600 mg single oral dose, Mean (N 6), read-out: AUC(0-24)
READOUT: AUC(0-t) (ng·h/mL)
Just the number please, in ng·h/mL, no unit attached.

Reported AUC(0-t) of CC(=O)c1nn(CC(=O)N2C[C@H](F)C[C@H]2C(=O)Nc2cccc(Br)n2)c2ccc(-c3cnc(C)nc3)cc12 : 6190

====

# ASSAY_REMARKS: Ocular tissue distribution and pharmacokinetics, 7.5 and 15 mg/kg oral, pigmented Dutch Belted rabbits (Example 7)
# Format: in vivo
# EXPERIMENTAL_PARAMETERS: Dutch Belted, rabbit, choroid-RPE, oral, […], DB rabbits, Day 15, […] BID, 1 hr; read-out: Mean Choroid-RPE Concentration
READOUT: concentration at 1 h
Answers without a unit are incomplete; give the number and then its unit.

Reported concentration at 1 h of CC(=O)c1nn(CC(=O)N2C[C@H](F)C[C@H]2C(=O)Nc2cccc(Br)n2)c2ccc(-c3cnc(C)nc3)cc12 : 2000 ng/g

====

# ASSAY_REMARKS: Ocular tissue and plasma pharmacokinetics, 50 mg/kg BID oral, Dutch Belted rabbits (Example 4/5)
# Assay type: in vivo
# EXPERIMENTAL_PARAMETERS: male, Dutch Belted, rabbit, retina, oral, 50 mg/kg, DB rabbits, Day 15, 50 mg/kg BID, 240 hr; read-out: Mean Retina Concentration
READOUT: concentration at 240 h (ng/g)
Just the number please, in ng/g, no unit attached.

Reported concentration at 240 h of CC(=O)c1nn(CC(=O)N2C[C@H](F)C[C@H]2C(=O)Nc2cccc(Br)n2)c2ccc(-c3cnc(C)nc3)cc12 : 39.4
